Entry source: patent US6770596B1

Measured Post-emerge crop damage WHEAT (phytotoxicity rating), listed per entry.
# Tested on: wheat (Triticum aestivum)
# protocol: Post-emerge test, crop damage wheat
# Type: in vivo
# study.conditions: post-emerge, 250 g ai/ha, 14 days after application, rating scale 0-100 (0 no damage, 100 complete death)
readout.kind: Post-emerge crop damage WHEAT (phytotoxicity rating)

compound: CC1C(=O)Nc2c(-c3nn(C)c(OC(F)F)c3Cl)c(F)cc3c2N1C(=O)C(C)(C)O3 (centres unmarked)
target.desc: wheat (Triticum aestivum)
value: 30

compound: CC1C(=O)N(C)c2c(-c3nn(C)c(OC(F)F)c3Cl)c(F)cc3c2N1C(=O)CO3 (centres unmarked)
target.desc: wheat (Triticum aestivum)
value: 50

compound: CC1C(=O)Nc2c(-c3nn(C)c(C(F)(F)F)c3Cl)c(F)cc3c2N1C(=O)C(C)(C)O3 (centres unmarked)
target.desc: wheat (Triticum aestivum)
value: 0

compound: CCC1C(=O)Nc2c(-c3nn(C)c(OC(F)F)c3Cl)c(F)cc3c2N1C(=O)CO3 (centres unmarked)
target.desc: wheat (Triticum aestivum)
value: 50

compound: CC1C(=O)Nc2c(-c3ncc(C(F)(F)F)cc3Cl)c(F)cc3c2N1C(=O)CO3 (centres unmarked)
target.desc: wheat (Triticum aestivum)
value: 15

compound: CC1Oc2cc(F)c(-c3nn(C)c(C(F)(F)F)c3Cl)c3c2N(C1=O)C(C)C(=O)N3 (mixture of isomers) [1-51]
target.desc: wheat (Triticum aestivum)
value: 60

compound: CC1Oc2cc(F)c(-c3nn(C)c(OC(F)F)c3Cl)c3c2N(C1=O)C(C)C(=O)N3 (mixture of isomers)
target.desc: wheat (Triticum aestivum)
value: 50

compound: Cc1nn(-c2c(F)cc3c4c2NC(=O)C(C)N4C(=O)CO3)c(=O)n1C(F)F (centres unmarked)
target.desc: wheat (Triticum aestivum)
value: 0

* * *

# Test system: field corn (Zea mays L., var. Dekalb 535, CORN)
# protocol: Post-emerge test, crop damage field corn
# Type: in vivo
# study.conditions: var. Dekalb 535, Zea mays (field corn), in vivo, 14 days
Recorded Post-emerge crop damage CORN (phytotoxicity rating), one value per entry.
readout.kind: Post-emerge crop damage CORN (phytotoxicity rating)

compound: CC1C(=O)Nc2c(-c3nn(C)c(OC(F)F)c3Cl)c(F)cc3c2N1C(=O)CO3 (stereo not drawn)
value: 40
//
compound: Cn1nc(-c2c(F)cc3c4c2NC(=O)CN4C(=O)CO3)c(Cl)c1C(F)(F)F
value: 25
//
compound: Cn1nc(-c2c(F)cc3c4c2NC(=O)CN4C(=O)CO3)c(Cl)c1OC(F)F
value: 35

* * *

# System: wheat (Triticum aestivum)
# protocol: Post-emerge test, crop damage wheat
# Assay type: in vivo
# study.conditions: Triticum aestivum (wheat), in vivo, 14 days
readout.kind: Post-emerge crop damage WHEAT (phytotoxicity rating)

compound: C[C@H]1Oc2cc(F)c(-c3nn(C)c(OC(F)F)c3Cl)c3c2N(CC(=O)N3)C1=O
value: 50
--
compound: Cn1nc(-c2c(F)cc3c4c2NC(=O)C(C)(C)N4C(=O)CO3)c(Cl)c1C(F)(F)F
value: 50
--
compound: CC1C(=O)Nc2c(-c3nn(C)c(OC(F)F)c3Cl)c(F)cc3c2N1C(=O)CO3 (stereo not shown)
value: 60
--
compound: Cn1nc(-c2c(F)cc3c4c2NC(=O)CN4C(=O)C(C)(C)O3)c(Cl)c1C(F)(F)F
value: 0
--
compound: C[C@H]1Oc2cc(F)c(-c3nn(C)c(C(F)(F)F)c3Cl)c3c2N(CC(=O)N3)C1=O
value: 0
--
compound: Cn1nc(-c2c(F)cc3c4c2NC(=O)CN4C(=O)CO3)c(Cl)c1C(F)(F)F
value: 25
--
compound: Cn1nc(-c2c(F)cc3c4c2NC(=O)CN4C(=O)CO3)c(Cl)c1OC(F)F
value: 60
